Target: Coagulation Factor V (FV), modified (Homo sapiens, UniProt P12259 P12259:29-2224)
Sequence (P12259 29-2224, one chain of several): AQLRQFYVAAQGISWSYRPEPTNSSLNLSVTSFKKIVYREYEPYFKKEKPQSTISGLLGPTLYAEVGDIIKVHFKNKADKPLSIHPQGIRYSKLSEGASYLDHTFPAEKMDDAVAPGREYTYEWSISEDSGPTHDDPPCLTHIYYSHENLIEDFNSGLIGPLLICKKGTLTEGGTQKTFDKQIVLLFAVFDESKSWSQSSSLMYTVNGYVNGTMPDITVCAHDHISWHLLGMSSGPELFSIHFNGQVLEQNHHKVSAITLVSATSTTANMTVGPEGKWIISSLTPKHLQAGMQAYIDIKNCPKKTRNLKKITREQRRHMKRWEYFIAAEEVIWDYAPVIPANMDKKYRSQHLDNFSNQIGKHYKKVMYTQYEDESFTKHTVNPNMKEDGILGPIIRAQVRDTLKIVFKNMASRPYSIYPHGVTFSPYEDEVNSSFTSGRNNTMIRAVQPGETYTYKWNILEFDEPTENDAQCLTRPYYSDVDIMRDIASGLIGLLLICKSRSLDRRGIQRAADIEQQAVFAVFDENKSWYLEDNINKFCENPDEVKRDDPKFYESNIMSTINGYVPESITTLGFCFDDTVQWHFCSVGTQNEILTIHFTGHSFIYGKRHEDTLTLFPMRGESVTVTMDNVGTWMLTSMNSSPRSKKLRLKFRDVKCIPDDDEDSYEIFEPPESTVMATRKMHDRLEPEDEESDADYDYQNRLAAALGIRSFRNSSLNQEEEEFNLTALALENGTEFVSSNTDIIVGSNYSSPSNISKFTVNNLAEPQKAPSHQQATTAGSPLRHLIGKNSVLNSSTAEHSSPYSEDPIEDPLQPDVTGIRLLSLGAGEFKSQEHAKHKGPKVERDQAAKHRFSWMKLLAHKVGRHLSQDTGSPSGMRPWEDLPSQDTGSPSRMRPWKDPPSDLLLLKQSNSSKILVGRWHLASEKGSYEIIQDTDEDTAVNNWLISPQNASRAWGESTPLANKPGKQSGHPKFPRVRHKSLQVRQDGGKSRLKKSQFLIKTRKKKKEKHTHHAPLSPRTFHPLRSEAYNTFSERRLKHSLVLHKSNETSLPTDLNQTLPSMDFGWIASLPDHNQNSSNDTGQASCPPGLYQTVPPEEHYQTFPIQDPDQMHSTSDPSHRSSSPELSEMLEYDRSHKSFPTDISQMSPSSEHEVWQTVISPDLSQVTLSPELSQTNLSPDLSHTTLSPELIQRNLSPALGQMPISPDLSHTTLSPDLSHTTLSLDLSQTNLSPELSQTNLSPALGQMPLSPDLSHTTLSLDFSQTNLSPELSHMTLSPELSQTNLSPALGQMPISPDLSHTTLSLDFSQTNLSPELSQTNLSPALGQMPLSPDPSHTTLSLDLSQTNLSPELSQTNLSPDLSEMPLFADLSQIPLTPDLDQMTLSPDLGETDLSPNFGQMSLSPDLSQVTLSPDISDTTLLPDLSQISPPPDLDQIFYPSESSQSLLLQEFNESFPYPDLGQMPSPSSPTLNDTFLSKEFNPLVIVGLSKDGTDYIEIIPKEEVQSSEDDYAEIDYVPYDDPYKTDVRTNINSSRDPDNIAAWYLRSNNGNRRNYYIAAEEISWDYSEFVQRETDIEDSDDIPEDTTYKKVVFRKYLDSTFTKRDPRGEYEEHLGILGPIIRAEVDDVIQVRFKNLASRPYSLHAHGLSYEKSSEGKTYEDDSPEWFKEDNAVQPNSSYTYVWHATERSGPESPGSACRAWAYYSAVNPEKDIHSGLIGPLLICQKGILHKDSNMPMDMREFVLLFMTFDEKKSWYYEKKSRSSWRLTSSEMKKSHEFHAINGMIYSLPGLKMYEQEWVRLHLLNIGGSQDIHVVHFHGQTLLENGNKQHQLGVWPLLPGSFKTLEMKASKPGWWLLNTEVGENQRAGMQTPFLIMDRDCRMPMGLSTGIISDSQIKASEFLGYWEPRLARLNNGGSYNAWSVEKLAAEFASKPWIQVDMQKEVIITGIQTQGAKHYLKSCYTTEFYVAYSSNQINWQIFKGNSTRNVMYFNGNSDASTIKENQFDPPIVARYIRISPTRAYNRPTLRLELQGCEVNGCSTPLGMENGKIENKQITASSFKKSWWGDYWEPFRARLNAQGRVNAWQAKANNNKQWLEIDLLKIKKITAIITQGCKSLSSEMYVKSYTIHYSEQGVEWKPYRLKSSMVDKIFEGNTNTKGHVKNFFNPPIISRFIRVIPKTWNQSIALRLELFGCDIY
Assay: FP_none filter
Conditions: tags: modified FV, protease-stabilised form described previously; label: 5'-32P

Binder: GGAUCCAACGCACAAUUACGUGCCUUGUCAGACGACUCGCUGAGGAUCC (ssRNA, 2'-F C and U) [11HMT]
Kd: 0.0232 µM

The measurements presented in this section are drawn from patent US20170355992.
